meta.source: the RNAGym collection of RNA variant scans (doi:10.7554/elife.90254)

B1: LINE1-full (parent)
chain: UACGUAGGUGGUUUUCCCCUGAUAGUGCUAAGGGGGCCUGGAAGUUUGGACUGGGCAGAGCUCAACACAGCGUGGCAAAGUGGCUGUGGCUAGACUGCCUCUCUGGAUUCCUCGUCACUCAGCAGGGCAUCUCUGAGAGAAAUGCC

Variants of: B1
Protocol Details: self-cleavage, relative activity (ratio to wild type); higher = more cleavage; in vitro, sequencing; the parent is a self-cleaving ribozyme
Provide the reported self-cleavage of each item.
Reply: number alone, nothing else.

Quick one: self-cleavage of "CACGUAGGUGGUUUUCCCCUGAUAGUGCUAAGGGGGCCUGGAAGUUUGGACUGGGCAGAGCUCAGCACAGCGUGGCAAAGUGGCUGUGGCUAGACUGCCUCUCUGGAUUCCUCGUCACUCAGCAGGGCAUCUCUGAGAGAAAUGCC" ?
0.07

Quick one: self-cleavage of "UACGUAGGUGGUUUUCCCCUGAUAGUGCUAAGGGGGCCUGGAAGUUUGGACUGGGCAUAGCUCAUCACAGCGUGGCAAAGUGGCUGUGGCUAGACUGCCUCUCUGGAUUCCUCGUCACUCAGCAGGGCAUCUCUGAGAGAAAUGCC" ?
0.04

Quick one: self-cleavage of "UACGUAGGUGGUUUUCCCCUGAUAGUGCUAUGGGGGCCUGGAAGUUUGGACUGGGCAGAGCUCAACACAGCGUGGCAAAGUGGCUGUGGCUAGACUGCCUCUCUGGAUUACUCGUCACUCAGCAGGGCAUCUCUGAGAGAAAUGCC" ?
0.91

Quick one: self-cleavage of "UACGUAGGUGGUUUUCCCCUGAUAGUGCUAAGGGGGCCUGGAAGUUUGGACUGGGCGGAGCUCAACGCAGCGUGGCAAAGUGGCUGUGGCUAGACUGCCUCUCUGGAUUCCUCGUCACUCAGCAGGGCAUCUCUGAGAGAAAUGCC" ?
0.28

Quick one: self-cleavage of "UGCUUAGGUGGUUUUCCCCUGAUAGUGCUAAGGGGGCCUGGAAGUUUGGACUGGGCAGAGCUCAACACAGCGUGGCAAAGUGGCUGUGGCUAGACUGCCUCUCUGGAUUCCUCGUCACUCAGCAGGGCAUCUCUGAGAGAAAUGCC" ?
0.4

Quick one: self-cleavage of "UACGUAGGUGGUUUUCCCCUGAUAGUGCUAUGGGGGCCUGGAAGUUUGGACUGGGCAGAGCUCAACACAGCGUGGCAAAGUGGCCGUGGCUAGACUGCCUCUCUGGAUUCCUCGUCACUCAGCAGGGCAUCUCUGAGAGAAAUGCC" ?
0.28

Quick one: self-cleavage of "UACGUAGGUGGUUUUCCCCUGAUAGUGCUAAGGGGGCCUGGAAGUUUGGACUGGGCAGAGCUCAACACAGCGUGGCAAAGUGGCUGUGGUUAGACUGCCUCUCUGGAGUCCUCGUCACUCAGCAGGGCAUCUCUGAGAGAAAUGCC" ?
0.09

Quick one: self-cleavage of "UACGUAGGUGGUUUUCCCCUGAUAGUGCUAAGGGGGCCUGGAAGUUUGGACUGGGCAGAGCUCAACACAGCGUGGCAGAGUGGCUGUGGCUAGACUGCCUCUCUGGAUUCCUCCUCACUCAGCAGGGCAUCUCUGAGAGAAAUGCC" ?
1.09

Quick one: self-cleavage of "UACGUAGGUGGUUCUCCCCUGAUAGUGCUAAGGGGGCCUGGAAGUUUGGACUGGGCAGAGCUCAACACAGCGUGGCAAAGUGGCUGUGGCUAGACUGCCUCUCUGGAUUCUUCGUCACUCAGCAGGGCAUCUCUGAGAGAAAUGCC" ?
1.14

Quick one: self-cleavage of "UACGUAGGUGGUUUUCCCCUGAUAGUGCUAAGGGGGCCUGGAAGUUUGGACUGGGCAGAGCUCAACACAGCGAGGCAAAGUGGCUGUGGCUAGACUGCCUCUCUGGAUUCUUCGUCACUCAGCAGGGCAUCUCUGAGAGAAAUGCC" ?
1.54

Quick one: self-cleavage of "UACGUAGGUGGUUUUCCCCUGACAGUGCUAAGGGGGCCUGGAAGUUUGGACUGGGCAGAGCUCAACACAGCGUGGCAAAGUGGCUGUGGCCAGACUGCCUCUCUGGAUUCCUCGUCACUCAGCAGGGCAUCUCUGAGAGAAAUGCC" ?
1.18

Quick one: self-cleavage of "UACGUAGGUGGUUUUCCCCUGAUAGUGCUAAGGGGGCCUGGAAGUUUGGACUGGGCAGAGCUCAACACAGCGUGGCAAAGUGGCUGUGGCUAGACUGCCUCUCUGGAUUCCUCGUCACUCAGCAGGGCACCUCUGAGAGAAAUGCU" ?
1.52

Quick one: self-cleavage of "UACGUAGGUGGUUUUCCCCUGAUAGUGCUAAGGAGGCCUGGAAGUUUGGACUGGGCAGAGCUCAACACAGCGUGGCAAAGUGGCAGUGGCUAGACUGCCUCUCUGGAUUCCUCGUCACUCAGCAGGGCAUCUCUGAGAGAAAUGCC" ?
0.1

Quick one: self-cleavage of "UACGUAGGUGGUUUUCCCCUGAUAGUGCUAAGGGGGCCUGGAAGUUUGGACUGGGCAGAGCUCAACACAGCGUGGCAAAGUGGCUGUAGCUAGACUGCCUCUCUGGAUUCCUCGUCACUCGGCAGGGCAUCUCUGAGAGAAAUGCC" ?
0.06

Quick one: self-cleavage of "UGCGUAGGUGGUUUUCCCCUGAUAGUGCUAAGGGGGCCUGGAAGUUUGGACUGGGCAGAGCUCAACACAGCAUGGCAAAGUGGCUGUGGCUAGACUGCCUCUCUGGAUUCCUCGUCACUCAGCAGGGCAUCUCUGAGAGAAAUGCC" ?
1.15

Quick one: self-cleavage of "UACGUAGGUGGUUUUCCCCUGAUAGUGCUAAGGGGGCCUGGAAGUUUGGACUGGGCAGAGCUCAUCACAGCGUGGCAAAGUGGCUGUGGCUAGACUGCCUCUCUGGAUUCCUCGUCACUCAGCAGGGCAUCCCUGAGAGAAAUGCC" ?
0.2

Quick one: self-cleavage of "UACGUAGGUGGUUUUCCCCUGAUAGUGCUAAGGGAGCCUGGAAGUUUGGACUGGGCAGAGCACAACACAGCGUGGCAAAGUGGCUGUGGCUAGACUGCCUCUCUGGAUUCCUCGUCACUCAGCAGGGCAUCUCUGAGAGAAAUGCC" ?
0.05

Quick one: self-cleavage of "UACGUAGGUGGUUUUCCCCUGAUAGUGCUAAGGGGGCCUGGAAGUUUGGACUGGGCAGAGCUCAACACAGCGUGGCAAAGUGGCUGUGGCUAGACUGCCUCUCUGGAAUCCUCGUCACCCAGCAGGGCAUCUCUGAGAGAAAUGCC" ?
1.41

Quick one: self-cleavage of "UACGUAGGUGGUUUUCCCCUGAUAGUGCUAAGGGGGCCUGGAAGUUUGGACUGGGCAGAGCUCAACGCAGCGUGGCAAAGUGGCUGUGGCUAGACUGCCUCUCUGGAUUCCUCGUCAAUCAGCAGGGCAUCUCUGAGAGAAAUGCC" ?
0.58

Quick one: self-cleavage of "UACGUAGGUGGUUUUCCCCUGAUAGUGCUAAGGGGGCCUGGAAGUUUGGACUGGGCAGAGCUCAACACAGCGUGGCAAAGUGGCUGCGGCUAGACUGCCUCUCUGGAUUCCACGUCACUCAGCAGGGCAUCUCUGAGAGAAAUGCC" ?
0.16

Quick one: self-cleavage of "UACGUAGGCGGUUUUCCCCUGAUAGUGCUAAGGGGGCCUGGAAGUUUGGACUGGGCUGAGCUCAACACAGCGUGGCAAAGUGGCUGUGGCUAGACUGCCUCUCUGGAUUCCUCGUCACUCAGCAGGGCAUCUCUGAGAGAAAUGCC" ?
0.24

Quick one: self-cleavage of "UACGUAGGUGGUUUCCCCCUGAUAGUGCUAAGGGGGCCUGGAAGUUUGGACUGGGCAGAGCUCAACUCAGCGUGGCAAAGUGGCUGUGGCUAGACUGCCUCUCUGGAUUCCUCGUCACUCAGCAGGGCAUCUCUGAGAGAAAUGCC" ?
0.17
